- test_details: Spectral characteristics: molar extinction coefficient and specific absorbance
- Format: physicochemical
- measurement_context: A1cm^1%; ethyl acetate, 10 μg/ml
recorded_endpoint: Maximum specific absorbance UVC

[I] Oc1ccccc1-c1nnc(-c2ccccc2)c(-c2ccccc2)n1
[II] COc1ccc(-c2nnc(-c3ccccc3O)nc2-c2ccc(OC)cc2)cc1
Q: Which numeric Maximum specific absorbance UVC is bigger, that of I or that of II ? # answer = label of selected item
Result: I

----------
- test_details: Spectral characteristics: molar extinction coefficient and specific absorbance
- Format: physicochemical
- measurement_context: ethyl acetate, 10 μg/ml
recorded_endpoint: Maximum molar extinction coefficient UVB (M⁻¹ cm⁻¹)

compound	unit_info	meas_value
CC(C)(C)CC(C)(C)c1cc(Cc2cc(C(C)(C)CC(C)(C)C)cc(-n3nc4ccccc4n3)c2O)c(O)c(-n2nc3ccccc3n2)c1 [Tinosorb M ®, reference compound]	M⁻¹ cm⁻¹	36600
COc1ccc(-c2nnc(-c3ccc(OC)cc3)c(-c3ccc(OC)cc3)n2)cc1 [JR70]	M⁻¹ cm⁻¹	29200
COc1ccc(-c2nnc(-c3ccc(O)cc3)nc2-c2ccc(OC)cc2)cc1 [JR65]	M⁻¹ cm⁻¹	31100
CCCCCCCCCCCCOc1ccc(-c2nnc(-c3ccc(OC)cc3)c(-c3ccc(OC)cc3)n2)cc1 [JR173]	M⁻¹ cm⁻¹	48600
COc1ccc(-c2nnc(-c3cccc(C#N)c3)nc2-c2ccc(OC)cc2)cc1 [JR113]	M⁻¹ cm⁻¹	28800
CCCCC(CC)COC(=O)C=Cc1ccc(OC)cc1 (stereo not drawn) [Parsol MCX ®, reference compound]	M⁻¹ cm⁻¹	24600
CCCCC(CC)COc1ccc(-c2nc(-c3ccc(OC)cc3)nc(-c3ccc(OCC(CC)CCCC)cc3O)n2)c(O)c1 (stereo not drawn) [Tinosorb S ®, reference compound]	M⁻¹ cm⁻¹	47150
COc1ccc(-c2nnc(-c3cc(O)c(O)c(O)c3)nc2-c2ccc(OC)cc2)cc1 [JR115]	M⁻¹ cm⁻¹	34300

----------
- test_details: Spectral characteristics: molar extinction coefficient and specific absorbance
- Type: physicochemical
- measurement_context: ethyl acetate, 10 μg/ml
recorded_endpoint: Wavelength of maximum molar extinction coefficient UVB

molecule	meas_value
CCCCC(CC)COc1ccc(-c2nc(-c3ccc(OC)cc3)nc(-c3ccc(OCC(CC)CCCC)cc3O)n2)c(O)c1 (stereo not drawn) [Tinosorb S ®, reference compound]	at 310
COc1ccc(-c2nnc(-c3ccc(OC)cc3)c(-c3ccc(OC)cc3)n2)cc1	at 310
CC(C)(C)CC(C)(C)c1cc(Cc2cc(C(C)(C)CC(C)(C)C)cc(-n3nc4ccccc4n3)c2O)c(O)c(-n2nc3ccccc3n2)c1 [Tinosorb M ®, reference compound]	at 305
COc1ccc(-c2nnc(-c3cc(O)c(O)c(O)c3)nc2-c2ccc(OC)cc2)cc1	at 310
CCCCCCCCCCCCOc1ccc(-c2nnc(-c3ccc(OC)cc3)c(-c3ccc(OC)cc3)n2)cc1	at 305

Q: Determine its reported Wavelength of maximum molar extinction coefficient UVB: `COc1ccc(-c2nnc(-c3ccc(C#N)cc3)nc2-c2ccc(OC)cc2)cc1`
Result: 300

Q: For CCCCC(CC)COC(=O)C=Cc1ccc(OC)cc1 (stereo not drawn) [Parsol MCX ®, reference compound] , write its Wavelength of maximum molar extinction coefficient UVB.
Result: at 310

----------
- test_details: Spectral distribution in UVA and UVB (290-400 nm)
- Format: physicochemical
- measurement_context: range from 290 nm to 400 nm
recorded_endpoint: Spectral distribution

Please review the entries below; each comes with its answer.
compound	recorded_endpoint	meas_value
COc1ccc(-c2nnc(-c3ccc(OC)cc3)c(-c3ccc(OC)cc3)n2)cc1 [JR70]	Spectral distribution	absorb in UVB
CCCCCCCCCCCCOc1ccc(-c2nnc(-c3ccc(OC)cc3)c(-c3ccc(OC)cc3)n2)cc1 [JR173]	Spectral distribution	absorb in UVB
COc1ccc(-c2nnc(-c3ccc(C#N)cc3)nc2-c2ccc(OC)cc2)cc1 [JR107]	Spectral distribution	absorb in UVB and UVA
COc1ccc(-c2nnc(-c3ccc(O)cc3)nc2-c2ccc(OC)cc2)cc1 [JR65]	Spectral distribution	absorb in UVB

Q: Assign Spectral distribution to the following record: COc1ccc(-c2nnc(-c3ccccc3C#N)nc2-c2ccc(OC)cc2)cc1 [JR114]
Result: absorb in UVB and UVA

All values here come from patent US8053573B2.
